# measurement_target: T1, rat PAI-1 (rat, UniProt P20961 24-402)
# T1 sequence: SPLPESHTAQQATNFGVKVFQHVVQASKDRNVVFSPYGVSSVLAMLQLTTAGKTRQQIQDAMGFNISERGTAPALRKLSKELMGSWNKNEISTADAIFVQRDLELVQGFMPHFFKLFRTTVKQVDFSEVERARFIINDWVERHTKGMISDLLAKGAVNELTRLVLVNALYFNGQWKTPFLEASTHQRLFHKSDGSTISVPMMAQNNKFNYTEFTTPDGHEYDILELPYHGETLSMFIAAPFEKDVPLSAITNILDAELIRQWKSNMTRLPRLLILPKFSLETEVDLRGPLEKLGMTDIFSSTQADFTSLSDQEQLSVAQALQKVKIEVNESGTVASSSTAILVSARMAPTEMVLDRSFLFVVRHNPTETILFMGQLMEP
# procedure_details: cell-based or functional assay
Kindly state Chromogenic IC50 ratio rat/human for each of the entries shown.
Write down the numeric answer in fold and omit the unit.

[in] Give reported Chromogenic IC50 ratio rat/human value for Antibody 02 scFv (scFv) QVQLVQSGAEVKKPGSSVKVSCKASGGTFSSYAISWVRQAPGQGLEWMGGIIPTFGTANYAQKFQGRVTITADESTSTAYMELSSLRSEDTAVYYCAREKRQWLEGHFDYWGRGTLVTVSSDIQMTQSPSTLSASVGDRVTITCRASEGIYHSLAWYQQKPGKAPKLLIYKASSLASGVPSRFSGSGSGTEFTLTISSLQPDDFATYYCQQYSDYPLTFGGGTKVEIK
[out] 891

[in] Determine from records and report Chromogenic IC50 ratio rat/human for Antibody 17 scFv (scFv) QVQLQQSGAEVKKPGSSVKVSCKASGGTFSSYAISWVRQAPGQGLEWMGGIIPTFGTANYAQKFQGRVTITADESTSTAYMELSGLRSEDTAVYYCAREKRQWLEGHFDYWGRGTPVTVSSDIQMTQSPSFLSASIGDRVTITCRASEGIYHELAWYQQKPGKAPKLLIYRASSLASGAPSRFSGSGSGTDFTLTISSLQPDDFATYYCQQYSNYPLTFGGGTKLEIK
[out] 0.3

[in] Query Chromogenic IC50 ratio rat/human for Antibody 15 scFv (scFv) QVQLQQSGAEVKKPGSSVKVSCKASGGTFSSYAISWVRQAPGQGLEWMGGIIPTFGTANYAQKFQGRVTITADESTSTAYMELSGLRSEDTAVYYCAREKRQWLEGHFDYWGRGTPVTVSSDIQMAQSPSFLSASIGDRVTITCRASEGIYHNLAWYQQKPGKAPKLLIYRASSLASGAPSRFSGSGSGTDFTLTISSLQPDDFATYYCQQYSNYPLTFGGGTKLEIR
[out] 8.9

[in] Specify reported Chromogenic IC50 ratio rat/human for the binder shown: Antibody 20 IgG1, not germlined (antibody, V domains shown, IgG1; also called Ab 20) VH: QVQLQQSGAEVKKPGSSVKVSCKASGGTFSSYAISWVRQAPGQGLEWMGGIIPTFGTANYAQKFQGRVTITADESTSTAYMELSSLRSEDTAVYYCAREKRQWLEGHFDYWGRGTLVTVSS VL: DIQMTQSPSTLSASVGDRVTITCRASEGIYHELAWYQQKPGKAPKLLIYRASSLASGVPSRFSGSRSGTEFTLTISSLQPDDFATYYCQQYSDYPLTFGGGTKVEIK
[out] 1.8

[in] Give me measured Chromogenic IC50 ratio rat/human, please, for this binder: Antibody 10 scFv (scFv) QVQLQQSGAEVKKPGSSVKVSCKASGGTFSSYAISWVRQAPGQGLEWMGGIIPTFGTANYAQKFQGRVTITADESTSTAYMELSSLRSEDTAVYYCAREKRQWLEGHFDYWGRGTPVTVSSDIQMTQSPSFLSASIGDRVAITCRASEGIYHSLAWYQQKPGKAPKLLIYRASSLASGAPSRFSGSGSGTDFTLTISSLQPDDFATYYCQQYSNYPLTFGGGTRLEIK
[out] 132

[in] Specify measured Chromogenic IC50 ratio rat/human for Antibody 05 scFv (scFv) QVQLQQSGAEVKKPGSSVKVSCKASGGTFSSYAISWVRQAPGQGLEWMGGIIPTFSTANYAQKFRGRVTITADESTSTAYMELSGLRSEDTAVYYCAREKRQWLEGHFDYWGRGTPVTVSSDIQMTQSPSFLSASIGDRVTITCRASEGIYHQLAWYQQKPGKAPKLLIYRASSLASGAPSRFSGSGSGTDFTLTISSLQPDDFATYYCQQYSNYPLTFGGGTKLEIK .
[out] 172

[in] Tell me measured Chromogenic IC50 ratio rat/human for Antibody 25 scFv (scFv) QVQLQQSGAEVKKPGSSVKVSCKASGGTFSSYAISWVRQAPGQGLEWMGGIIPTFGTANYAQKFQGRVTITADESTSTAYMELSGLRSEDTAVYYCARERRQWLEGHFDYWGQGTPVTVSSDIQMTQSPSFLSASIGDRVTITCRASESIYHELAWYQQKPGKAPKLLIYKASSLASGAPSRFSGSGSGTAFTLTISSLQPDDFATYYCQQYSNYPLTFGGGTKLEIK please.
[out] 24.6

[in] Give the reported value of Chromogenic IC50 ratio rat/human for this record: Antibody 23 scFv (scFv) QVQLQQSGAEVKKPGSSVKVSCKASGGTFSSYAISWVRQAPGQGLEWMGGIIPTFGTANYAQKFQSRVTITADESTSTAYMELSGLRSEDTAVYYCAREKRQWLEGHFDYWGRGTPVTVSSDIQMTQSPSFLSASIGDRVTITCRASEGIYHSLAWYQQKPGKAPKLLIYRASSLASGAPSRFSGSGSGTDFTLTISSLQPDDFATYYCQQYSNYPLTFGGGTKLEIK
[out] 229

[in] Give me measured Chromogenic IC50 ratio rat/human, please, for this binder: Antibody 07 scFv (scFv) QVQLQQSGAEVKKPGSSVKVSCKASGGTFSSYAISWVRQAPGQGLEWVGGIIPTFGTANYAQKFQGRVTITADESTSTAYMELSGLRSEDTAVYYCAREKRQWLEGHFDYWGRGTPVTVSSDIQMAQSPSFLSASIGDRVTITCRASEGIYHELAWYQQKPGKAPKLLIYRASSLASGAPSRFSGSGSGTDFTLTISSLQPDDFATYYCQQYSNYPLTFGGGTKLEIK
[out] 0.5

[in] Output measured Chromogenic IC50 ratio rat/human for this item: Antibody 22 scFv (scFv) QVQLQQSGAEVKKPGSSVKVSCKASGGTFSGYAISWVRQAPGQGLEWMGGIIPTFGTANYSQKFQGRVTITADESTSTAYMELSGLRSEDTAVYYCAREKRQWLEGHFDYWGRGTPVTVSSDIQMTQSLSFLSASIGDRVTITCRASEGIYHALAWYQQKPGKAPKLLIYRASSLASGAPSRFSGSGSGTDFTLTISSLQPDDFATYYCQQYSNYPLTFGGGTKLEIK
[out] 81.2
